Values from PubChem BioAssay (NCATS)

Method Summary: Viability qHTS for spleen associated tyrosine kinase inhibitor (SYKi) naive MV4-11 cells (AID 1963823); also: nearly all actives have a fitted effect of over 40% in size
Condition Summary: MV4-11 AML viability, CellTiter-Glo luminescence, 72 h; series mostly up to 45 µM
Inconclusive results are not listed. Activity calls are given as the source filed them. Calls follow the shape of the dose curve; as a rule, active = well fitted cell-killing curve with a large enough effect; inconclusive = small, poorly fitted or top-dose-only effect, or effect the other way; inactive = no such curve, though single readings can be large or run the other way.
Hi there, use one of these labels in your reply, thanks! active, inactive

Completed entries (count: 5):
Molecule: COC(=O)/C=C/C(=O)N(O)CCCCNCc1ccc(COC(=O)Nc2cccc3ccccc23)cc1
Class Assignment: active

Molecule: CCCCc1ccc(C(=O)Nc2cc(-c3ccc(Cl)cc3)nn2-c2ccc(Cl)cc2)cc1
Class Assignment: inactive

Molecule: C=C1CC[C@@H]2[C@](C)(CO[C@@H]3O[C@H](CO)[C@@H](O)[C@H](O)[C@H]3O)CCC[C@@]2(C)[C@@H]1CCC1=CCOC1=O
Class Assignment: inactive

Molecule: COc1ccc(-c2c(C)c(C(=O)NN3CCCCC3)nn2-c2ccc(Cl)cc2Cl)cc1
Class Assignment: active

Molecule: CC1(C)CC2C(O)c3cocc3CC(C)(O)C2C1 (stereo not drawn)
Class Assignment: inactive

Fill in: this test's call for `O=c1cc[nH]c(=S)[nH]1` is ___ inactive

Fill in: this test's call for CC1(C)CC[C@]2(C(=O)O)CC[C@]3(C)C(=CCC4[C@@]5(C)CC[C@H](O[C@@H]6O[C@H](C(=O)O)[C@@H](O[C@@H]7OC[C@@H](O)[C@H](O)[C@H]7O)[C@H](O)[C@H]6O)C(C)(C)C5CC[C@]43C)C2C1O (stereo partly drawn) is ___ inactive

Fill in: this test's call for `COc1cc2c(cc1OCCCN1CCCC1)N=C(N)C21CCC1` is ___ inactive

* * *

Method Summary: Cellular viability qHTS for adrenocortical cancer (ACC) cell line SW-13 (AID 1963989);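 also: cells grown in serum-free medium with ITS supplement; % is scaled to controls: 0 for no effect and ±100 for the full control effect; nearly all actives have a fitted effect of over 65% in size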
Condition Summary: SW-13 ACC cells viability, CellTiter-Glo, 48 h; hits give low values
Inconclusive results are not listed.
Quantity Measured: activity (max response) (%)
API: value field is a number in %; no unit string.

Consider the compound `Cc1nc2ccccn2c(=O)c1CCN1CCC(C(=O)c2ccc(F)cc2)CC1` and give its recorded activity (max response). -20

Consider the compound `Cc1ncc(CSSCc2cnc(C)c(O)c2CO)c(CO)c1O` and give its recorded activity (max response). 9.04

Consider the compound `CC1=C(/C=C/C(C)=C/C=C/C(C)=C\C(=O)O)C(C)(C)CCC1` and give its recorded activity (max response). -0.514

Consider the compound `NS(=O)(=O)c1ccc(NC(=O)CCC(=O)O)cc1` and give its recorded activity (max response). 4.28

Consider the compound `Cc1cccc(C)c1NC(=O)CC12CCCN1CCC2` and give its recorded activity (max response). 1.71

Consider the compound `O=C(O)c1ccccc1-c1ccc(/C=c2\sc3nc4cc(Br)cnc4n3c2=O)o1` and give its recorded activity (max response). -2.9

Consider the compound `CC(=O)Oc1ccc(C)cc1` and give its recorded activity (max response). 6.29

Consider the compound CCN(c1cc(C#CCN2CCOCC2)cc(C(=O)NCc2c(C)cc(C)[nH]c2=O)c1C)C1CCC(N(C)CCOC)CC1 (configuration not stated) and give its recorded activity (max response). 7.49

Consider the compound CCN(CC)C(=O)Nc1ccc(OCC(O)CNC(C)(C)C)c(C(C)=O)c1 (configuration not stated) and give its recorded activity (max response). 12

Consider the compound `C[C@@H]1C[C@H]2[C@@H]3C[C@H](F)C4=CC(=O)C(Cl)=C[C@]4(C)[C@@]3(F)[C@@H](O)C[C@]2(C)[C@@]1(O)C(=O)CO` and give its recorded activity (max response). -6.49
